These entries and their values trace back to the supplement of paper PMC6757056.

B1: library; a variant is named by its letters at N, in order (parent)
chain: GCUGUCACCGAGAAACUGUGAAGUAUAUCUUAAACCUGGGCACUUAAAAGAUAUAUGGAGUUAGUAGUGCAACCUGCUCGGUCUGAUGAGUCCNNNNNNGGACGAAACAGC

variants of: B1; assay: FACS-Seq fitted mean relative fluorescence mCherry/BFP without ligand (log10 relative fluorescence); HEK293T; ligand: cyclic di-GMP (c-di-GMP-II aptamer); higher = higher reporter protein expression; conditions: ligand present: no
Each entry belongs to exactly one class, chosen by where its FACS-Seq fitted mean (log10) falls: low bracket = under -0.5, middle bracket = from -0.5 up to -0.3, high bracket = -0.3 and over

Illustrative cases are given below, each with its answer.
{"MUTANT CODE": "GAAGGA", "LABEL VALUE": "middle bracket"}
{"MUTANT CODE": "GCGUGA", "LABEL VALUE": "high bracket"}
{"MUTANT CODE": "UUAAAU", "LABEL VALUE": "middle bracket"}
{"MUTANT CODE": "UCAGUA", "LABEL VALUE": "low bracket"}
{"MUTANT CODE": "CGUGCG", "LABEL VALUE": "low bracket"}

*Q* Which FACS-Seq fitted mean (log10) category applies to AGAAUG here?
*A* middle bracket
